Tested on: MT4
ASSAY NAME: Cytotoxicity against human MT4 cells after 96 hrs
Type: functional, cell-based
REPORTED CONDITIONS: MT4, 96 h
MEASURED ATTRIBUTE: pIC50
// pIC50: -log10(molar conc.)

MOLECULE	pIC50
COc1cc([C@@H]2c3cc4c(cc3[C@@H](O[C@@H]3O[C@@H]5CO[C@@H](C)O[C@H]5[C@H](O)[C@H]3O)[C@H]3COC(=O)[C@H]23)OCO4)cc(OC)c1O [ETOPOSIDE]	7.05

**Q:** Returns the measured pIC50 for the input molecule. Input: `CC(C)C(=O)c1c(O)c([C@H](C2=C(O)C(C)(C)C(=O)C(C)(C)C2=O)C(C)C)c(O)c([C@H](C2=C(O)C(C)(C)C(=O)C(C)(C)C2=O)C(C)C)c1O`
**A:** 5.33

**Q:** Returns the measured pIC50 for the input molecule. Input: CC(C)C(=O)c1c(O)c([C@H](C2=C(O)C(C)(C)C(=O)C(C)(C)C2=O)C(C)C)c2c3c1OC(C)(C)C[C@H]3[C@H]1C(C)(C)C(=O)C(C)(C)[C@@]1(O)O2 (relative stereo)
**A:** 5.68

**Q:** Returns the measured pIC50 for the input molecule. Input: CC(C)[C@@H]1C[C@@]2(CC[C@]3(C(C)C)C[C@H]23)OC2=C1C(=O)C(C)(C)C(=O)C2(C)C (relative stereo)
**A:** 4.38
